Tested on: HCT-8
Experiment summary: Cytotoxicity against human HCT8 cells at 10 uM after 72 hrs by SRB assay
Format: functional
Reported conditions: HCT-8, 72 h
Everything with inhibition at 10 µM lower than 30% is rule not met; everything else, including exactly 30%, is rule met.

Please review the entries below; each comes with its answer.
Compound: CN1CCN(c2ccc3c(c2)n2ncc(-c4ccccc4)c2n[n+]3[O-])CC1
Group: rule met

Compound: COc1ccc(-c2ccc3c(c2)n2nccc2n[n+]3[O-])cc1
Group: rule not met

Compound: CN1CCN(c2ccc3c(c2)n2ncc([N+](=O)[O-])c2n[n+]3[O-])CC1
Group: rule not met

Compound: CCOC(=O)c1cn[nH]c1/N=[N+](/[O-])c1cc([N+](=O)[O-])ccc1O
Group: rule not met

Field: next molecule
Prompt: Record `[O-][n+]1nc2ccnn2c2cc(-c3ccccc3)ccc21` ; criterion: inhibition at 10 µM no lower than 30%. Met?
Response: rule not met
